# MEASURED_TARGET: T1, 006 PSMA Fab
# T1 construct: Biotinylated and captured on neutravidin-coated plates in the phage ELISA; also called Anti-PSMA Fab
# PROTOCOL: clonal phage ELISA on PSMA Fab-coated plate; competitor: PSMA antigen pre-incubated in the well
Task for the reader: assign each of the following binders its reported phage binding ELISA signal in presence of PSMA.

Record request: phage binding ELISA signal in presence of PSMA value, item DGKWCIPPWMCAMA [Phage-2375]
0.0859

Same lookup for DFMRCTPEWMCTGF [Phage-2382] , please.
0.0663

Same lookup for VQKWCIPPWMCQIS [Phage-2380] , please.
0.0907

Same lookup for IPKWCTPVWMCAGF [Phage-2385] , please.
0.0806

Same lookup for GEKWCIPTWMCDWT [Phage-2373] , please.
0.0544

Same lookup for PDKWCIPQWMCDIT [Phage-2376] , please.
0.0617

Same lookup for LHKWCTPAWMCEVP [Phage-2379] , please.
0.0904

Same lookup for VEKWCKPEWMCTSL [Phage-2386] , please.
0.0692

Data credit: patent US20260242478A1
